meta.source: paper PMC9965125

Entries and their % Protection values follow.
Test system: hot plate latency
PROCEDURE SUMMARY: hot plate assay (central analgesic)
Assay type: in vivo, mice
CONDITION DESCRIPTION: after 30 min; 10 mg/kg indomethacin mol equivalent i.p.
State just the number; it will be interpreted in %.

Here's what some known entries look like.
COMPOUND	NUMERIC RESULT
CC(C)Cc1ccc(C(C)C(=O)OCc2cn(-c3ccc([N+](=O)[O-])cc3)nn2)cc1 (stereo not shown)	87.1
Cc1ccc(-n2cc(COC(=O)C(C)c3ccc(CC(C)C)cc3)nn2)cc1 (stereo not shown)	65.0
COc1ccc2c(c1)c(CC(=O)OCc1cn(-c3ccccc3OC)nn1)c(C)n2C(=O)c1ccc(Cl)cc1	69.2
COc1ccc2c(c1)c(CC(=O)OCc1cn(-c3ccc(F)cc3)nn1)c(C)n2C(=O)c1ccc(Cl)cc1	69.5
COc1ccc2c(c1)c(CC(=O)OCc1cn(-c3ccc(C)cc3)nn1)c(C)n2C(=O)c1ccc(Cl)cc1	97.8

Q: Give the reported % Protection for this compound. CC(C)Cc1ccc(C(C)C(=O)O)cc1 (stereo not shown) [Ibu, Ibuprofen, reference compound]
Result: 61.7

Q: Give the reported % Protection for this compound. COc1ccc(-n2cc(COC(=O)C(C)c3ccc(CC(C)C)cc3)nn2)cc1 (stereo not shown)
Result: 90.1

Q: Give the reported % Protection for this compound. CC(C)Cc1ccc(C(C)C(=O)OCc2cn(-c3ccc(Cl)cc3)nn2)cc1 (stereo not shown)
Result: 84.1

Q: Give the reported % Protection for this compound. `COc1ccc(-n2cc(COC(=O)Cc3c(C)n(C(=O)c4ccc(Cl)cc4)c4ccc(OC)cc34)nn2)cc1`
Result: 66.3

Q: Give the reported % Protection for this compound. C#CCOC(=O)C(C)c1ccc(CC(C)C)cc1 (stereo not shown)
Result: 55.2
